# System: E. coli 7MP
# Test: Quantitative drug diffusion assay (disc, zone of inhibition, CLSI)
# Assay type: cell-based
# Condition details: ESBL inhibitor 0 mcg (antibiotic alone)
# From the text: Activity of cefepime in combination with tazobactam and various penicillins in combination with respective ESBL inhibitors was also investigated against highly resistant ESBL strains in quantitative drug diffusion assay performed as per CLSI recommendations (Clinical and Laboratory Standards Institute (CLSI), performance Standards for Antimicrobial Susceptibility Testing, 20th Informational Supplement, M 100-S20, Volume 30, No. 1, 2010). […]
Test readout: Zone of Inhibition

INSERT INTO results (molecule, readout_value) VALUES
  ('CC1(C)S[C@@H]2[C@H](NC(=O)[C@H](N)c3ccc(O)cc3)C(=O)N2[C@H]1C(=O)O [Amoxicillin]', 'Nil'),
  ('CO/N=C(\C(=O)N[C@@H]1C(=O)N2C(C(=O)[O-])=C(C[n+]3cccc4c3CCC4)CS[C@H]12)c1csc(N)n1 [Cefpirome]', '11 mm'),
  ('CO/N=C(\C(=O)N[C@@H]1C(=O)N2C(C(=O)[O-])=C(C[N+]3(C)CCCC3)CS[C@H]12)c1csc(N)n1 [Cefepime]', '16 mm'),
  ('CC1(C)S[C@@H]2[C@H](NC(=O)[C@H](C(=O)O)c3ccsc3)C(=O)N2[C@H]1C(=O)O [Ticarcillin]', 'Nil'),
  ('CC1(C)S[C@@H]2[C@H](NC(=O)[C@H](N)c3ccccc3)C(=O)N2[C@H]1C(=O)O [Ampicillin]', 'Nil'),
  ('CCN1CCN(C(=O)N[C@@H](C(=O)N[C@@H]2C(=O)N3[C@@H]2SC(C)(C)[C@@H]3C(=O)O)c2ccccc2)C(=O)C1=O [Piperacillin]', 'Nil');

###

# System: E. coli 7MP
# Test: MIC by agar dilution (CLSI) against highly resistant ESBL strain
# Format: cell-based
# Condition details: E. coli 7MP; with Tazobactam 8 mcg
MIC overview
Test readout: MIC

INSERT INTO results (compound, readout_value) VALUES
  ('CC1(C)S[C@@H]2[C@H](NC(=O)[C@H](C(=O)O)c3ccsc3)C(=O)N2[C@H]1C(=O)O', '>64 mg/L'),
  ('COCC1=C(C(=O)O)N2C(=O)[C@@H](NC(=O)/C(=N\OC)c3csc(N)n3)[C@H]2SC1', '>64 mg/L'),
  ('CC1(C)S[C@@H]2[C@H](NC(=O)[C@H](N)c3ccc(O)cc3)C(=O)N2[C@H]1C(=O)O', '>64 mg/L'),
  ('CO/N=C(\C(=O)N[C@@H]1C(=O)N2C(C(=O)O)=C(CSc3nc(=O)c(=O)[nH]n3C)CS[C@H]12)c1csc(N)n1', '>64 mg/L'),
  ('CO/N=C(\C(=O)N[C@@H]1C(=O)N2C(C(=O)[O-])=C(C[n+]3cccc4c3CCC4)CS[C@H]12)c1csc(N)n1', '4 mg/L'),
  ('CO/N=C(\C(=O)N[C@@H]1C(=O)N2C(C(=O)[O-])=C(C[N+]3(C)CCCC3)CS[C@H]12)c1csc(N)n1 [Cefepime]', '4 mg/L'),
  ('CCN1CCN(C(=O)N[C@@H](C(=O)N[C@@H]2C(=O)N3[C@@H]2SC(C)(C)[C@@H]3C(=O)O)c2ccccc2)C(=O)C1=O', '>64 mg/L'),
  ('CC(C)(O/N=C(\C(=O)N[C@@H]1C(=O)N2C(C(=O)[O-])=C(C[n+]3ccccc3)CS[C@H]12)c1csc(N)n1)C(=O)O', '>64 mg/L'),
  ('CC1(C)S[C@@H]2[C@H](NC(=O)[C@H](N)c3ccccc3)C(=O)N2[C@H]1C(=O)O', '>64 mg/L');
